# System: SF-268 CNS
# assay-text: NCI tumour cell line growth inhibition, 48 h
Recorded measurements of TGI, one per entry

molecule	TGI
CSC(SC)=C1Sc2cccc(Cl)c2S1	> 100 µM
COCc1nc(C#N)c(N)o1	> 10 µM
NCCCc1nonc1C(=O)O	> 100 µM
CC(=O)OC(C(=O)NNC(=O)OC(C)(C)C)c1ccccc1 (centres undefined)	> 100 µM
CCCN1CCCC(c2ccc(Nc3nc(Nc4cc(F)ccc4C(N)=O)c4cc[nH]c4n3)c(OC)c2)C1 (centres undefined)	6.07 µM
COc1ccc(Cc2c3cc(OC)c(OC)cc3cc[n+]2C)cc1	> 27.5 µM
C=C1C(=O)O[C@H]2[C@H]1CC/C(COC(=O)NCc1ccc(Cn3c(=O)sn(CCCI)c3=O)cc1)=C\CC[C@@]1(C)O[C@@H]21	7.41 µM
CCCCCCCCCCCCNC(=O)N[C@H](C(=O)N[C@H]1/C=C/OCCNC(=O)/C=C/[C@H](C(C)C)NC1=O)C(C)C	> 100 µM
O=C1N(c2ccccc2)C2(O)C(=O)c3ccccc3C2(O)N1c1ccccc1 (centres undefined)	> 100 µM
